Target: Histamine H4 receptor (Homo sapiens, UniProt Q9H3N8, E182Q)
Sequence (Q9H3N8 whole entry E182Q): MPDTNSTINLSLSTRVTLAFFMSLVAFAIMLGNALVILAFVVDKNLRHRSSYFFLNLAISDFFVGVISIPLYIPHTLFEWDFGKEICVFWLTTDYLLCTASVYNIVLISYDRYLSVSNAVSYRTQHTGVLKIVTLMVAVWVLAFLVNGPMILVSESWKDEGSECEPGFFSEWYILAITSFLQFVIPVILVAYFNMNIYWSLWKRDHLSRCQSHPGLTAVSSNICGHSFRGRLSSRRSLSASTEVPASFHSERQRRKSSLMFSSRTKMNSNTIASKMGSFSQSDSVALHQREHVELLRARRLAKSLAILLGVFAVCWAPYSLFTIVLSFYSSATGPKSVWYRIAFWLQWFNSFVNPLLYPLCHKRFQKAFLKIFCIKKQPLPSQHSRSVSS
Assay: Displacement of [3H]JNJ7777120 from human H4 receptor E5.46Q mutant expressed in HEK293 cells after 1 to 1.5 hrs by scintillation counting
READOUT_LABEL: Ki (nM)
Kindly provide the numeric value in nM only, without the unit symbol.

For the record NC(=NCc1ccc(Cl)cc1)SCCCc1cnc[nH]1 , what value of Ki is listed for Histamine H4 receptor (Homo sapiens, UniProt Q9H3N8, E182Q)?
50.1

For the record Clc1ccc(CN=C(NC2CCCCC2)SCCCc2cnc[nH]2)cc1 , what value of Ki is listed for Histamine H4 receptor (Homo sapiens, UniProt Q9H3N8, E182Q)?
158

====

Entries with reported Ki on UniProt Q9H3N8
Kindly provide the numeric value in nM only, without the unit symbol.

Give its Ki value. Item: c1nc(CCCS/C(=N\C2CCCC2)NC2CCCCC2)c[nH]1
31.6

Give its Ki value. Item: Clc1ccc(C/N=C(/NCc2ccccc2)SCCCc2c[nH]cn2)cc1Cl
380

Give its Ki value. Item: CCCCN/C(=N/C1CCCC1)SCCCc1c[nH]cn1
16.2

Give its Ki value. Item: CCCCN/C(=N/Cc1ccc(Cl)c(Cl)c1)SCCCc1c[nH]cn1
89.1

Give its Ki value. Item: CC(C)(C)N/C(=N/C1CCCC1)SCCCc1c[nH]cn1
29.5

Give its Ki value. Item: c1ccc(CN/C(=N/C2CCCCC2)SCCCc2c[nH]cn2)cc1
75.9

Give its Ki value. Item: c1ccc(CN/C(=N/C2CCCC2)SCCCc2c[nH]cn2)cc1
42.7

Give its Ki value. Item: N#Cc1ccc(C/N=C(/NC2CCCCC2)SCCCc2c[nH]cn2)cc1
126

====

For each record, write down the corresponding Ki.
Target: Histamine H4 receptor (Homo sapiens, UniProt Q9H3N8, V102A)
Sequence (Q9H3N8 whole entry V102A): as the sequence (Q9H3N8 whole entry E182Q) above, with V102A, Q182E counted along it
Test: Displacement of [3H]histamine from human H4 receptor V3.40A mutant expressed in HEK293 cells after 1 to 1.5 hrs by scintillation counting
Kindly provide the numeric value in µM only, without the unit symbol.

For the record NC(=NCc1ccc(Cl)cc1)SCCCc1cnc[nH]1 , what value of Ki is listed for Histamine H4 receptor (Homo sapiens, UniProt Q9H3N8, V102A)?
0.01

For the record Clc1ccc(CN=C(NC2CCCCC2)SCCCc2cnc[nH]2)cc1 , what value of Ki is listed for Histamine H4 receptor (Homo sapiens, UniProt Q9H3N8, V102A)?
0.0631

====

Target: Histamine H4 receptor (Homo sapiens, UniProt Q9H3N8, Q347L)
Sequence (Q9H3N8 whole entry Q347L): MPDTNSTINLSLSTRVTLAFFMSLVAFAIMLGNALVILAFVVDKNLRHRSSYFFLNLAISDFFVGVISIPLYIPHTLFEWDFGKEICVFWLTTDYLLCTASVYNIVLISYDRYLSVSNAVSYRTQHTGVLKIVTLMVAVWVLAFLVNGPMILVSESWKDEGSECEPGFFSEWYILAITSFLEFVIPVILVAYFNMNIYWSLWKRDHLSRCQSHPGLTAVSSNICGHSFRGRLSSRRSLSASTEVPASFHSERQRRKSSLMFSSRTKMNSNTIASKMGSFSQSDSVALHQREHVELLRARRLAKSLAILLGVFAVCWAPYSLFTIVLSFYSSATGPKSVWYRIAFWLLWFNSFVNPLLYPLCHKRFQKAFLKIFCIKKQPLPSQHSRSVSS
Assay: Displacement of [3H]histamine from human H4 receptor Q7.42L mutant expressed in HEK293 cells after 1 to 1.5 hrs by scintillation counting
READOUT_LABEL: pKi
Just so you know, pKi here is -log10 of the concentration in molar units; reply with that number alone.

Give its pKi value. Item: NC(=NCc1ccc(Cl)cc1)SCCCc1cnc[nH]1 [CLOBENPROPIT]
9.00

Give its pKi value. Item: Clc1ccc(CN=C(NC2CCCCC2)SCCCc2cnc[nH]2)cc1
7.90

====

For each record, write down the corresponding Ki.
Molecular target: Histamine H4 receptor (Homo sapiens, UniProt Q9H3N8, T178A)
Sequence (Q9H3N8 whole entry T178A): as the sequence (Q9H3N8 whole entry E182Q) above, with T178A, Q182E counted along it
Test: Displacement of [3H]histamine from human H4 receptor T5.42A mutant expressed in HEK293 cells after 1 to 1.5 hrs by scintillation counting
Type: cell-based
Kindly provide the numeric value in nM only, without the unit symbol.

Give its Ki value. Item: NC(=NCc1ccc(Cl)cc1)SCCCc1cnc[nH]1
2.51

Give its Ki value. Item: Clc1ccc(CN=C(NC2CCCCC2)SCCCc2cnc[nH]2)cc1
12.6
